Molecular target: phospho p-38 alpha kinase (Homo sapiens)
Construct: purchased Panvera
Sequence (Q16539 whole entry): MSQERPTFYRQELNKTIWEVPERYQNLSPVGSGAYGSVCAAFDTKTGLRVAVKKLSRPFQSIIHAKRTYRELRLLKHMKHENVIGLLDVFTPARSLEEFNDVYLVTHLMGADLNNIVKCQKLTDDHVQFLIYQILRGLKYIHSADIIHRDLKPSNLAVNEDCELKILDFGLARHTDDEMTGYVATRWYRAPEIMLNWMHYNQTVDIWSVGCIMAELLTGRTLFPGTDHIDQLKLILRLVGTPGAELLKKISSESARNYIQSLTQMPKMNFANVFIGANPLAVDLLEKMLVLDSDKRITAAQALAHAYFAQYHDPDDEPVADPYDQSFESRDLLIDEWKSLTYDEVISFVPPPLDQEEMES
Experiment: P-38 alpha kinase assay (spectrophotometric, pyruvate kinase/lactate dehydrogenase coupled)
Format: biochemical
Settings: Table 3; rates from […] to 2 h time frame
Below is a list of entries, each paired with its recorded pIC50 value.
// scale note: pIC50 = -log10(conc_M); give the bare number

# count of solved cases: 3
molecule	pIC50
CC(C)(C)c1cc(NC(=O)Nc2cccc(Br)c2)n(-c2cccc(CCN)c2)n1 [Example 376]	6.32
CC(C)(C)c1cc(NC(=O)Nc2cccc(Cl)c2)n(-c2cccc(CO)c2)n1 [Example 406]	7.87
COc1cccc(NC(=O)Nc2cc(C(C)(C)C)nn2-c2cccc(CO)c2)c1 [Example 409]	7.51

Request: What value of pIC50 has been recorded for this entry: CC(O)c1cccc(-n2nc(C(C)(C)C)cc2NC(=O)Nc2cccc3ccccc23)c1 (stereo not shown) [Example 472]
Result: 7.30
